log10 of MIC values, listed per item
Test system: Bacillus subtilis
Assay: Antibacterial activity against Bacillus subtilis SCSIO BS01 after 18 hrs by broth microdilution method
Format: functional
Conditions: SCSIO BS01, 18 h
// do not treat as linear: log10 of MIC, unit µg/mL

Field: example entries. Status: answers known.
{"MOLECULE": "CCCc1c(Cl)c(OC)cc2c1Oc1c(Cl)c(O)c(Cl)c(CCC)c1C(=O)O2", "MEASURED_PROPERTY": "log10 of MIC", "ENDPOINT_RESULT": -0.60}
{"MOLECULE": "CCCc1cc(O)cc2c1Oc1c(Cl)c(O)cc(CCC)c1C(=O)O2", "MEASURED_PROPERTY": "log10 of MIC", "ENDPOINT_RESULT": 1.20}
{"MOLECULE": "CCCc1cc(O)cc2c1Oc1c(Cl)c(O)c(Cl)c(CCC)c1C(=O)O2", "MEASURED_PROPERTY": "log10 of MIC", "ENDPOINT_RESULT": 0.60}

## Task Would you mind telling me what log10 of MIC value was observed for `CCCc1c(Cl)c(O)cc2c1Oc1c(Cl)c(O)c(Cl)c(CCC)c1C(=O)O2` ?
## Result -0.30

## Task // query: `CCCc1c(Cl)c(O)c(Cl)c2c1Oc1c(Cl)c(O)c(Cl)c(CCC)c1C(=O)O2`
## Result 0.30

## Task Note, next up: `CC1(C)S[C@@H]2[C@H](NC(=O)Cc3ccccc3)C(=O)N2[C@H]1C(=O)O`
## Result -0.90

## Task Consider next the compound `CCCc1c(Cl)c(O)cc2c1OC(=O)c1c(CCC)c(Cl)c(O)c(Cl)c1O2` in the same way.
## Result -0.30

## Task Consider next the compound `CCCc1cc(O)cc2c1Oc1cc(O)c(Cl)c(CCC)c1C(=O)O2` in the same way.
## Result 0.90

* * *

Items are presented alongside their recorded MIC.
System: Escherichia coli
Test: Antibacterial activity against extended spectrum beta-lactamase-deficient Escherichia coli ATCC 25922 after 18 hrs by broth microdilution method
Assay type: functional, organism-based
Conditions: ATCC 25922, 18 h, read-out: IC50

# annotated cases, reported MIC shown
{"MOLECULE": "CCCc1c(Cl)c(OC)cc2c1Oc1c(Cl)c(O)c(Cl)c(CCC)c1C(=O)O2", "ASSAYED_TARGET": "Escherichia coli", "MIC": "> 256 µM"}
{"MOLECULE": "CCCc1c(Cl)c(O)cc2c1Oc1c(Cl)c(O)c(Cl)c(CCC)c1C(=O)O2", "ASSAYED_TARGET": "Escherichia coli", "MIC": "> 256 µM"}

Read the next record carefully.
## Task Item `CCCc1cc(O)cc2c1Oc1c(Cl)c(O)cc(CCC)c1C(=O)O2` has what recorded MIC?
## Result > 256 µM

* * *

Tested on: Staphylococcus aureus
Test: Antibacterial activity against methicillin-sensitive Staphylococcus aureus 15 after 18 hrs by broth microdilution method
Assay type: functional, organism-based
Settings: Staphylococcus aureus, 15, 18 h; read-out: IC50
For each record, check the reported MIC: if it is below 4 µM write 1, else write 0.

Worked examples, 4 molecules total:
{"MOLECULE": "CCCc1c(Cl)c(OC)c(Cl)c2c1Oc1c(Cl)c(O)c(Cl)c(CCC)c1C(=O)O2", "CLASS_ASSIGNMENT": 1}
{"MOLECULE": "CCCc1c(Cl)c(O)c(Cl)c2c1Oc1c(Cl)c(O)c(Cl)c(CCC)c1C(=O)O2", "CLASS_ASSIGNMENT": 0}
{"MOLECULE": "CCCc1cc(O)cc2c1Oc1c(Cl)c(O)cc(CCC)c1C(=O)O2", "CLASS_ASSIGNMENT": 0}
{"MOLECULE": "C[C@H]1COc2c(N3CCN(C)CC3)c(F)cc3c(=O)c(C(=O)O)cn1c23", "CLASS_ASSIGNMENT": 1}

## Task In plain terms, does `CCCc1cc(O)cc2c1Oc1c(Cl)c(O)c(Cl)c(CCC)c1C(=O)O2` come in under 4 µM for MIC?
## Result 0
